Measured melting point of individual entries

> print(dat)
                                   compound         result
1  CCc1c(-c2nnc(SCc3ccc(F)cc3)o2)[nH]c2ccc(Br)cc12 [ABM340]  185 to 187 °C

Query :: Look up melting point for this compound: CCc1c(-c2nnc(SCCCc3ccccc3)o2)[nH]c2ccc(Cl)cc12 [ABM330]
Result :: 170 to 172 °C

Query :: Look up melting point for this compound: c1ccc(CSc2nnc(-c3cc4ccccc4[nH]3)o2)cc1 [ABM333]
Result :: 178 to 180 °C

Query :: Look up melting point for this compound: Cc1c(-c2nnc(Nc3ccc(F)cc3)o2)[nH]c2ccc(Cl)cc12 [ABM337]
Result :: 256 to 258 °C

Query :: Look up melting point for this compound: CCc1c(-c2nnc(NCc3ccccc3)o2)[nH]c2ccc(Br)cc12 [ABM316]
Result :: 218 to 220 °C

Query :: Look up melting point for this compound: Cc1c(-c2nnc(Nc3ccccc3)o2)[nH]c2ccc(Cl)cc12 [ABM311]
Result :: 268 to 270 °C

Query :: Look up melting point for this compound: CCc1c(-c2nnc(SCc3ccc(C)cc3)o2)[nH]c2ccc(Br)cc12 [ABM327]
Result :: 201 to 203 °C

Query :: Look up melting point for this compound: CCc1c(-c2nnc(SCc3ccccc3)o2)[nH]c2ccc(Cl)cc12 [ABM328]
Result :: 180 to 182 °C

Query :: Look up melting point for this compound: Cc1c(-c2nnc(NCc3ccccc3)o2)[nH]c2ccc(Cl)cc12 [ABM315]
Result :: 220 to 222 °C

Query :: Look up melting point for this compound: CCc1c(-c2nnc(NCCc3ccccc3)o2)[nH]c2ccc(Br)cc12 [ABM320]
Result :: 170 to 172 °C

====

Target: cannabinoid CB1 receptor (Homo sapiens, UniProt P21554)
Construct: host or cells: HEK293 CB1 β-arrestin cells
Sequence (P21554 whole entry): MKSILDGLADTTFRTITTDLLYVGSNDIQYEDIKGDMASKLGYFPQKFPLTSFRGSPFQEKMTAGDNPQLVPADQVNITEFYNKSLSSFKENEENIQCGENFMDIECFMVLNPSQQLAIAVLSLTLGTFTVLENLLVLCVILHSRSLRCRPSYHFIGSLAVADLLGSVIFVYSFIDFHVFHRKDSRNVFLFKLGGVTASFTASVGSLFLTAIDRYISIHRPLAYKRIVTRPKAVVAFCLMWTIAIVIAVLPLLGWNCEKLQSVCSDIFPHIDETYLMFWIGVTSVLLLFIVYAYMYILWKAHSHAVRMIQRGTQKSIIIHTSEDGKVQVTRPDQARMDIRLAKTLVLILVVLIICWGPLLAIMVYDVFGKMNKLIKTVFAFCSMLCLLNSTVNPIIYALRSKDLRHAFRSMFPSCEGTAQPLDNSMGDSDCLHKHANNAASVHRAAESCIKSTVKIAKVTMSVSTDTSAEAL
Assay: PathHunter β-Arrestin assay (allosteric inhibition of agonist Emax)
Format: cell-based
Conditions: HEK293 CB1 β-arrestin cells; concentration of modulator giving 50% reduction in agonist Emax; 60 min pre-incubation
pIC50: −log10 of the molar value.
quantity_measured: pIC50

A = Cc1c(-c2nnc(Nc3ccccc3)o2)[nH]c2ccc(Cl)cc12 [ABM311]
B = CCc1c(-c2nnc(SCc3ccc(C)cc3)o2)[nH]c2ccc(Br)cc12 [ABM327]
Query :: Among A and B , which shows a numerically higher pIC50 result? Reply briefly: the label of your chosen item.
Result :: A

a = CCc1c(-c2nnc(NCCc3ccccc3)o2)[nH]c2ccc(Cl)cc12 [ABM317]
b = CCc1c(-c2nnc(SCCc3ccccc3)o2)[nH]c2ccc(Br)cc12 [ABM325]
c = CCc1c(-c2nnc(SCc3ccc(C)cc3)o2)[nH]c2ccc(Cl)cc12 [ABM332]
Query :: Order the entries by their reported pIC50, beginning at the minimum. Output the labels ranked as instructed.
Result :: b, c, a
(b: 6.50, c: 7.07, a: 9.30)

====

Test: Human liver microsomal stability assay
Assay type: in vitro ADME
Conditions: both sexes, pH 7.4; pooled human liver microsomes 0.5 mg/mL, 3 μM compound, NADPH, 37° C., 45 min; read-out: Microsomal stability T1/2 Human
quantity_measured: half-life at 3 μM (min)

> print(dat)
                                   compound  quantity.measured  unit.symbol  readout.number
1  O=S(=O)(NCc1ccc(-c2ccc(F)cc2F)cn1)c1cc2cc(Cl)ccc2[nH]1 [Reference compound 2 (ABD1075), reference compound]  half-life at 3 μM          min              56
2  CCc1c(-c2nnc(SCc3ccc(F)cc3)o2)[nH]c2ccc(Br)cc12  half-life at 3 μM          min              40
3  CCc1c(C(=O)NCCc2ccc(N3CCCCC3)cc2)[nH]c2ccc(Cl)cc12 [Reference compound 1 (Org27569)]  half-life at 3 μM          min              32
4  CCc1c(-c2nnc(SCc3ccccc3)o2)[nH]c2ccc(Cl)cc12  half-life at 3 μM          min              46

I = O=S(=O)(NCc1ccc(-c2ccc(F)nc2F)cc1)c1cc2cc(Cl)ccc2[nH]1 [Reference compound 3 (ABD1085), reference compound]
II = CCc1c(-c2nnc(Nc3ccc(F)cc3)o2)[nH]c2ccc(Br)cc12
Query :: Among I and II , which shows a numerically higher half-life at 3 μM result? Reply briefly: the label of your chosen item.
Result :: II
